We begin with log10(IC50) values for Serine/threonine-protein kinase Chk1 (Homo sapiens), as collected from the published literature.
Readout Type: log10(IC50) (log10 of the value in nM)

# Compound, log10(IC50)
data = [
    ("O=C(Nc1ccccc1N1CCNCC1)c1csc(N2CCCc3ccccc32)n1", 1.58),
    ("O=C(Nc1ccccc1N1CCNCC1)c1csc(N2CCc3c(F)ccc(F)c3C2)n1", 3.11),
    ("COc1ccc2c(c1)C(=O)N(c1nc(C(=O)Nc3ccnnc3N3CCNCC3)cs1)C2", 2.45),
    ("O=C(Nc1cnccc1N1CCNCC1)c1csc(-c2ccc3[nH]ccc3c2)n1", 1.00),
    ("CNc1nc(Nc2cnc(C#N)c(OC[C@@H]3CCCNC3)c2)ncc1C(F)(F)F", 2.39),
    ("N#Cc1cnc(NC(=O)Nc2cc(Cl)ccc2OC2CCOC2)cn1 (centres undefined)", 0.48),
    ("CO[C@H]1[C@H](O)[C@H]2[C@@H](O[C@@H]1CN)n1c3ccccc3c3c4c(c5c6ccccc6n2c5c31)C(=O)NC4=O", 0.45),
    ("O=c1[nH]c2sccc2c(NC2CCCNC2)c1-c1nc2ccccc2[nH]1 (centres undefined)", 1.19),
]
